assay: Solubility in gastric juice or intestinal juice model fluid (precipitation method using DMSO); type: physicochemical; settings: pH 1.2, simulated gastric fluid, kinetic from dmso stock, 1st fluid for Disintegration Test of Japanese Pharmacopoeia (pH: 1.2), room temperature, read-out: Solubility (μg/mL) 1st fluid
property_measured: solubility at 24 h (µg/mL)

compound	property_measured	rel	assay_value
COc1cc(OCc2ccc(C(F)(F)F)nc2)ccc1-c1c(Br)nc(-c2ccc(F)nc2)n1C [Example 305]	solubility at 24 h	=	24.7
COc1cc(OCc2cccnc2C(F)(F)F)ccc1-c1cnc(-c2ccc(Cl)nc2)[nH]1 [Example 108]	solubility at 24 h	=	4.1
COc1cc(OCc2cncc(C(F)(F)F)c2)ccc1-c1cnc(-c2ccc(F)nc2)[nH]1 [Example 137]	solubility at 24 h	=	39.9
COc1cc(OCc2ccc(C(F)(F)F)nc2)ccc1-c1c[nH]c(-c2ccc(F)nc2)n1 [Example 1]	solubility at 24 h	=	20.7
COc1cc(OCc2ccc(C(F)(F)F)cn2)ccc1-c1nc(C2CCC(F)(F)CC2)n(CC2CC2)c1Cl [Example 292]	solubility at 24 h	>	111
COc1cc(-c2cnc(C3CCC(F)(F)CC3)[nH]2)ccc1OCc1ccc(C(F)(F)F)nc1 [Example 16]	solubility at 24 h	=	90.8
COc1cc(-c2cnc(C3CC3)[nH]2)ccc1OCc1ncc(C(F)(F)F)cc1F [Example 376]	solubility at 24 h	=	75.2
CCSc1ccc(-c2nc(Cl)c(-c3ccc(OCc4ccc(C(F)(F)F)nc4)cc3OC)[nH]2)cn1 [Example 358]	solubility at 24 h	=	1.6
COc1cc(OCc2ccc(C(F)(F)F)cc2)ccc1-c1nc(-c2ccc(Cl)cn2)[nH]c1C [Example 34]	solubility at 24 h	=	17

* * *

The compounds listed here are annotated with their melting point.

substance_smiles	melting point
COc1cc(-c2c[nH]c(C3CC3)n2)ccc1OCc1ccc(C(F)(F)F)cn1	153 to 155 °C
COc1cc(OCc2ccc(C(F)(F)F)nc2)ccc1-c1[nH]c(-c2ccc(F)nc2)nc1C#N	212 to 219 °C
COc1cc(OCc2ncc(F)cc2F)ccc1-c1[nH]c(-c2ccc(Cl)nc2)nc1Cl	187 to 190 °C
Fc1cc(C(F)(F)F)cnc1COc1ccc(-c2[nH]c(C3CC(F)(F)C3)nc2Cl)cc1	162 to 167 °C
COc1cc(OCc2ccc(C(F)(F)F)nc2)ccc1-c1nc(-c2ccc(F)nc2)[nH]c1C	169 to 171 °C
COc1cc(OCc2ncc(C(F)(F)F)cc2F)ccc1-c1[nH]c(-c2ccc(Cl)nc2)nc1Cl	116 to 131 °C
COc1cc(-c2cnc(C3CC(F)(F)C3)[nH]2)ccc1OCc1ncc(C(F)(F)F)cc1F	105 to 110 °C
COc1cc(-c2cnc(C3CCC(F)(F)CC3)[nH]2)ccc1O	131 to 136 °C

* * *

Recorded melting point values for a group of compounds are listed next.
property_measured: melting point

compound	property_measured	assay_value
COc1cc(OCc2c(F)cc(C(F)(F)F)c[n+]2[O-])ccc1-c1[nH]c(-c2ccc(F)nc2)nc1Cl [Example 317]	melting point	105 to 110 °C
COc1cc(OCc2ccc(C(F)(F)F)nc2)ccc1-c1nc(-c2ccc(Cl)nc2)n(C)c1C [Example 152]	melting point	185 to 188 °C
COc1cc(OCc2ccc(C(F)(F)F)nc2)ccc1-c1[nH]c(C2CC(F)(F)C2)nc1Cl [Example 181]	melting point	199 to 201 °C
COc1ccc(-c2nc(-c3ccc(OCc4ccc(C(F)(F)F)cn4)c(OC)c3)c[nH]2)cn1 [Example 70]	melting point	217 to 218 °C (dec.)
